target_desc: Fuc(a1-2)Gal(b1-4)GlcNAc
protocol_description: glycan array binding signal (z-score within array); higher = stronger binding
reported_conditions: glycan notation: IUPAC condensed, linker removed
The entries come from a sample that favours the strongest signals as a whole.
// reported glycan array binding signal (z-score) per item
Lab note: write the figure by itself, no unit.

[
  {
    "binder": "DC-ASGPR Long (Homo sapiens) (protein) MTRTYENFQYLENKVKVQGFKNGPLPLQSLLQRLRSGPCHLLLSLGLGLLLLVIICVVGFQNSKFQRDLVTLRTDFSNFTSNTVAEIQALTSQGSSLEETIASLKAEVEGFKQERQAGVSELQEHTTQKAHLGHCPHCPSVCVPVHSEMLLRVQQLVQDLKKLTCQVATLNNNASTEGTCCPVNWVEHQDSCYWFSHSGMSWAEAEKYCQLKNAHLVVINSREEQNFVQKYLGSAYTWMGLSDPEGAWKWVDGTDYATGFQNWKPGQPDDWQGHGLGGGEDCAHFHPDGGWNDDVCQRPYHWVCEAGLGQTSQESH",
    "test_result": -0.356
  }
]

Next binder, glycan array binding signal (z-score) to be filled in.
Entry UEA-I (Ulex europaeus), P22972 (protein) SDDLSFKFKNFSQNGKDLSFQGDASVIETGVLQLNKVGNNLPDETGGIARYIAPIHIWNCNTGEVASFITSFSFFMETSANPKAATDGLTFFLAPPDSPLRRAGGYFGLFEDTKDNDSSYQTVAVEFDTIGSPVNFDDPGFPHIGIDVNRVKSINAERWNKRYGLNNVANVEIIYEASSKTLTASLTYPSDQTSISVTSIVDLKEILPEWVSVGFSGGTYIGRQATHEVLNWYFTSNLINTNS , glycan array binding signal (z-score) reported as 5.04
